Where these numbers come from: ChEMBL document CHEMBL5532636

target_or_system: Renin (Homo sapiens, UniProt P00797)
Sequence (P00797 whole entry): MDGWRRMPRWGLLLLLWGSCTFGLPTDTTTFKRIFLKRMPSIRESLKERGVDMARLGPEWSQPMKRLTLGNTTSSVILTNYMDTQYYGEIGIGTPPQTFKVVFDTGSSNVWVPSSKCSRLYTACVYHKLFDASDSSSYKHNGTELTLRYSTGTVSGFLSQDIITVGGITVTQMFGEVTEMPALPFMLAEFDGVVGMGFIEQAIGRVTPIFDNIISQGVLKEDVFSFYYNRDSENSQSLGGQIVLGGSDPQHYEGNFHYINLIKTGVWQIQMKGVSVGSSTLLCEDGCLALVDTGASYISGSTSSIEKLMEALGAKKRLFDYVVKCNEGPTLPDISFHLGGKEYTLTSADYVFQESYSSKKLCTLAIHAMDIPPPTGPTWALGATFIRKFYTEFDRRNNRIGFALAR
run_description: Inhibition of recombinant human renin using Arg-Glu(EDANS)-lle-His-Pro-Phe-His-Leu-Val-lle-His-Thr-Lys(dabcyl)-Arg as substrate incubated for 5 to 10 mins by fluorescence based assay
observation_type: IC50 (µM)

[[record]]
structure_string = "O=C(O)[C@H]1O[C@@H](Oc2cc3oc(-c4ccccc4)cc(=O)c3c(O)c2O)[C@H](O)[C@@H](O)[C@@H]1O"
experimental_result = 120


----------
run_description: Cytotoxicity against African green monkey Vero E6 cells assessed as reduction in cell viability incubated for 3 days by MTT assay
Type: toxicity, cell-based, Vero C1008
condition_label: chlorocebus sabaeus, time 3 day
observation_type: CC50 at 72 h

[[record]]
structure_string = "O=C(O)[C@H]1O[C@@H](Oc2cc3oc(-c4ccccc4)cc(=O)c3c(O)c2O)[C@H](O)[C@@H](O)[C@@H]1O"
experimental_result = "> 1000 µM"

